src = the PETadex activity labels (doi:10.1002/cssc.202101062)

substrate: gfPET; assay: Proxy for plastic degradation [Released monomer concentration (HPLC/LC-MS) (TPA+MHET+BHET)]; settings: 70 °C
The reader will find reported Proxy for plastic degradation values listed item by item below.
Express the reported value numerically, then name its unit.

unnamed (protein) MANPYERGPAPTTSSIEASRGPFAIASVTVSRSSVSGFGGGTIYYPRDTSEGTFGAVAIAPGFTADEGSMAWYGPRIASQGFVVFTIDTITRLDQPDSRGRQLLAALDYLTQRSSVRSRIDSSRLAVMGHSMGGGGSLEASVSRPSLKAAIPLTPWNLKKNWRDVRVPTLIVGAESDSIASVRTHAEPFYESIPSTTNKAYLELNNATHFAPNISNTTIAKYSISWLKRFVDNDTRYEQFLCPPPRPDRDIEEYRSTCPH; 0.05 mmol/h

Given the protein unnamed (protein) MANPYERGPDPTVQSIEAVRGPFSVSETNVSRLVVTGFGGGTIYYPRDTSQGTFGAVAIAPGFTASEGSMAWYGPRIASQGFVVFTIDTLTRLDQPDSRGRQLLAALDYLTQRSSVRSRIDSSRLAVMGHSMGGGGSLEASESRPSLKASIPLTPWNLKKNWRNNRVPTLIVGAENDSIASVRTHAEPFYESIPSTTNKAYLELNNATHFAPNISNTTIAKYSISWLKRFVDNDTRYEQFLCPPPRPDRDIEEYRCTCPY , what is its reported Proxy for plastic degradation? 0.08 mmol/h

Given the protein unnamed (protein) MDNPYERGPDPTTQSVEAARGPYAVSQITVGGQFGSYSGGTIYYPTSTADGKFGAVAIAPGFLSFQSSVAWLGPRLASQGFVVMTIDTGTIFDQPAQRGDQLLDALDFLTQRSSVKDRIDPNRLAVAGWSMGGGGSLEAAADRPSLKAAIPMAGWNLNTNWSRLTTPVLVVGVQNDLIAPVGSHSEPFYNSIRSEKAYLELAGGSHFTVTSANTPQAKLMISWLKRFVDNDTRYEQFICPGPSRGFSVSEYRSTCPF , what is its reported Proxy for plastic degradation? 0 mmol/h

Given the protein unnamed (protein) MENPYERGPDPTTQSVEAARGPYAVSQITVGGQFGSYSGGTIYYPTSTADGKFGAVAIAPGFLSFQSSVAWLGPRIASQGFVVMTIDTGTIFDQPAQRGDQLLDALDFLTQRSSVKDRIDPNRLAVAGWSWGGGGSLEAAADRPSLKAAIPMAGWNLNTNWSRLTTPVLVVGVQNDLIAPVAMHSEPFYNSIRSEKAYLELAGGSHFTVTSANTPQAKLMISWLKRFVDNDTRYEQFICPGPSRGFSVSEYRSTCPY , what is its reported Proxy for plastic degradation? 0 mmol/h

Given the protein unnamed (protein) MANPYERGPNPTDALLEARSGPFSVSEENVSRLSASGFGGGTIYYPRENNTYGAVAISPGYTGTEASIAWLGERIASHGFVVITIDTITTLDQPDSRAEQLNAALNHMINRASSTVRSRIDSSRLAVMGHSMGGGGSLRLASQRPDLKAAIPLTPWHLNKNWSSVTVPTLIIGADLDTIAPVATHAKPFYNSLPSSISKAYLELDGATHFAPNIPNKIIGKYSVAWLKRFVDNDTRYTQFLCPGPRDGLFGEVEEYRSTCPF , what is its reported Proxy for plastic degradation? 0.2 mmol/h
